Test system: male mice
TEST METHOD NOTES: extension of sleeping time of depressant drugs by synergists
Type: in vivo, male mice (Swiss albino white)
CONDITION DETAILS: Secobarbital 37 mg/kg; synergist 74 mg/kg one hour prior
MEASURE: Mean Sleeping Time, Secobarbital (min)
Kindly answer with a numeric value in min, unit omitted.

COMPOUND	SYSTEM NAME	MEASURE	VAL
C#CCOCc1c(Cl)cccc1[N+](=O)[O-] [II-K]	male mice	Mean Sleeping Time, Secobarbital	48

Next compound, please.
stdin: Return Mean Sleeping Time, Secobarbital measured with male mice given this compound: C#CCOCc1cccc2ccccc12 [II-R, α-napthylmethyl 2-propynyl ether]
stdout: 35

----------
Measured percent kill after 24 hours, with Diazinon, listed per entry.
Tested on: Rutgers A strain house flies
TEST METHOD NOTES: topical application, percent kill after 24 hours, resistant Rutgers A strain
Format: in vivo, female)
CONDITION DETAILS: Diazinon 1.5 + synergist 7.5 μg/fly
Give the quantity in %, number only.

Would you please look over these solved cases?
CHEMICAL SMILES	VAL
C#CCON=Cc1cccc2ccccc12	0
C#CCON=C(C)c1ccc(Cl)cc1	69
C#CCON=Cc1ccc(Cl)cc1	80

Proceeding to the next compound to report its percent kill after 24 hours, with Diazinon.
stdin: Rutgers A strain house flies / percent kill after 24 hours, with Diazinon / `C#CCON=Cc1ccc(Cl)cc1Cl` : value?
stdout: 60

----------
Test system: male mice
TEST METHOD NOTES: extension of sleeping time of depressant drugs by synergists
Assay type: in vivo, male mice (Swiss albino white)
CONDITION DETAILS: Secobarbital 37 mg/kg; synergist 74 mg/kg one hour prior
compounds and their reported Mean Sleeping Time, Secobarbital
State the answer as a number, implicitly in min.

The following compounds have reported results that may help.
CHEMICAL SMILES	Mean Sleeping Time, Secobarbital / min
C#CCOCc1ccc(Cl)c([N+](=O)[O-])c1	29
C#CCON=C(C)c1ccc2ccccc2c1	32
C#CCON=Cc1ccc(Cl)cc1Cl	27
C#CCOCc1c(Cl)cccc1Cl	44

Turning now to a further compound:
stdin: Any idea what Mean Sleeping Time, Secobarbital was measured for `C#CCOCc1ccc([N+](=O)[O-])cc1` ?
stdout: 30

----------
Test system: Swiss albino, white male mice
TEST METHOD NOTES: acute toxicity and synergism of acute toxicity in mice
Type: in vivo
CONDITION DETAILS: GS 13005 71 + synergist 213 mg/kg
Listing of recorded number of mice dead, with GS 13005 by entry.
Reply: number alone, nothing else.

COMPOUND	VAL
C#CCOCc1c(Cl)cccc1Cl	7
C#CCOCc1ccccc1[N+](=O)[O-]	6
C#CCOCc1ccc([N+](=O)[O-])cc1	6

stdin: What measured number of mice dead, with GS 13005 is associated with `C#CCOCc1ccc(Cl)c(Cl)c1Cl` on Swiss albino, white male mice?
stdout: 3

stdin: // map `C#CCOCc1c(Cl)cccc1[N+](=O)[O-]` to recorded number of mice dead, with GS 13005 (system: Swiss albino, white male mice)
stdout: 3

stdin: Find the measured number of mice dead, with GS 13005: item CCOCCOCCOC(C)Oc1ccc2c(c1)OCO2 (stereo not shown) [Sesoxane, reference compound] , target or system Swiss albino, white male mice.
stdout: 0

stdin: Provide the documented number of mice dead, with GS 13005 with Swiss albino, white male mice as the system for `C#CCOCc1ccc(Cl)cc1[N+](=O)[O-]`
stdout: 6

----------
Test system: male mice
TEST METHOD NOTES: extension of sleeping time of depressant drugs by synergists
Assay type: in vivo, male mice (Swiss albino white)
CONDITION DETAILS: Noludar 110 mg/kg; synergist 110 mg/kg one hour prior
Below, each of the compounds is paired with its reported Mean Sleeping Time, Noludar value.
Use min as the unit, but write only the number.

Known Mean Sleeping Time, Noludar results, listed for orientation:
COMPOUND	SYSTEM NAME	MEASURE	VAL
C#CCON=Cc1ccc(N(C)C)cc1	male mice	Mean Sleeping Time, Noludar	34
C#CCOCc1ccc([N+](=O)[O-])cc1Cl	male mice	Mean Sleeping Time, Noludar	58
C#CCn1nc(Cl)c2ccccc21	male mice	Mean Sleeping Time, Noludar	46
C#CCOC(c1ccc(Cl)cc1Cl)C(C)[N+](=O)[O-] (stereo not drawn)	male mice	Mean Sleeping Time, Noludar	78
C#CCOCc1ccc(Cl)c(Cl)c1Cl	male mice	Mean Sleeping Time, Noludar	46
C#CCn1ncc2ccc(Cl)cc21	male mice	Mean Sleeping Time, Noludar	45

stdin: Using the record for `C#CCOCc1ccc([N+](=O)[O-])cc1` , report its Mean Sleeping Time, Noludar.
stdout: 41

stdin: Please give the measured Mean Sleeping Time, Noludar for this compound: `C#CCOCc1ccc(Cl)cc1[N+](=O)[O-]`
stdout: 70

stdin: Name the reported Mean Sleeping Time, Noludar value associated with the compound `C#CCON=Cc1cccc([N+](=O)[O-])c1`
stdout: 70

stdin: For the compound `C#CCON=C(C)c1ccc2ccccc2c1` , what Mean Sleeping Time, Noludar is on record?
stdout: 55

stdin: For the compound shown here, `C#CCON=C(C)c1ccc(Cl)cc1` , give the reported Mean Sleeping Time, Noludar.
stdout: 58

----------
Tested on: Swiss albino, white male mice
TEST METHOD NOTES: acute toxicity and synergism of acute toxicity in mice
Assay type: in vivo
CONDITION DETAILS: synergist 1000 mg/kg i.p., Dimetilan 0; 72 hours; eight mice
Recorded number of mice dead, synergist alone values for a group of molecules are listed next.
The reply should be a number, written without any unit.

For orientation, consider the following solved cases.
MOLECULE	number of mice dead, synergist alone
C#CCOCc1ccccc1[N+](=O)[O-]	2
CCOCCOCCOC(C)Oc1ccc2c(c1)OCO2 (stereo not drawn) [Sesoxane, reference compound]	1

stdin: Given `C#CCOCc1ccc([N+](=O)[O-])cc1` , state its recorded number of mice dead, synergist alone.
stdout: 7

----------
Contact Synergistic Ratio, Carbaryl: recorded values
System: Wilson strain house flies
Format: in vivo, Wilson strain (susceptible)
CONDITION DETAILS: in vivo
Please give only the number in your answer, with no unit.

COMPOUND	VAL
C#CCON=Cc1cccc([N+](=O)[O-])c1	270
C#CCOC(c1ccc(Cl)cc1Cl)C(C)[N+](=O)[O-] (stereo not drawn)	134
C#CCOCc1cc(Cl)c(Cl)cc1Cl	150
C#CCOCc1ccc(Cl)cc1Cl	50
C#CCOCc1ccc(Cl)c(Cl)c1Cl	200
C#CCON=C(C)c1ccc2ccccc2c1	200

Please find the next compound below.
stdin: If you can, please state the reported Contact Synergistic Ratio, Carbaryl value of `C#CCON=Cc1ccc(N(C)C)cc1` .
stdout: 200

----------
System: Wilson strain house flies
Format: in vivo, Wilson strain (susceptible)
CONDITION DETAILS: LC50 pyrolan alone / LC50 with synergist; synergist to insecticide 5:1 by weight
MEASURE: Contact Synergistic Ratio, Pyrolan
Give the figure by itself; no unit, no explanation.

Below, each entry is followed by its recorded Contact Synergistic Ratio, Pyrolan result.
MOLECULE	VAL
C#CCOCc1ccc(Cl)cc1 [II-A]	7
C#CCn1nc(Cl)c2ccccc21 [III-B]	30
C#CCON=Cc1cccc([N+](=O)[O-])c1 [I-B]	35
C#CCn1ncc2cc([N+](=O)[O-])ccc21 [III-A]	30
C#CCON=C(C)c1ccc2ccccc2c1 [I-F]	50

stdin: Please report the recorded Contact Synergistic Ratio, Pyrolan for C#CCOC(c1cccc2ccccc12)C(C)[N+](=O)[O-] (stereo not shown) [IV-B] .
stdout: 10

stdin: Which Contact Synergistic Ratio, Pyrolan value belongs to C#CCOCc1c(Cl)cccc1Cl [II-H] ?
stdout: 40

----------
Test system: Swiss albino, white male mice
TEST METHOD NOTES: acute toxicity and synergism of acute toxicity in mice
Type: in vivo
CONDITION DETAILS: Dimetilan 8 + synergist 240 mg/kg i.p.; 48 hours; eight mice
// values below are reported number of mice dead, with Dimetilan
Note: the reply should be a number with no unit written.

Previously resolved entries follow.
CHEMICAL SMILES	MEASURE	VAL
C#CCn1ncc2ccc(Cl)cc21	number of mice dead, with Dimetilan	1
C#CCOCc1ccccc1[N+](=O)[O-]	number of mice dead, with Dimetilan	0
C#CCOCc1c(Cl)ccc(Cl)c1Cl	number of mice dead, with Dimetilan	0

Now for the compound whose number of mice dead, with Dimetilan we want.
stdin: Could you tell me which number of mice dead, with Dimetilan is on file for `C#CCON=Cc1cccc([N+](=O)[O-])c1` ?
stdout: 6

----------
Tested on: male mice
TEST METHOD NOTES: extension of sleeping time of depressant drugs by synergists
Assay type: in vivo, male mice (Swiss albino white)
CONDITION DETAILS: Noludar 110 mg/kg; synergist 110 mg/kg; treated/control
Here the recorded Relative Sleeping Time, Noludar is given for each entry.
Answer with a bare number; do not write a unit.

Illustrative cases are given below, each with its answer.
MOLECULE	SYSTEM NAME	Relative Sleeping Time, Noludar
C#CCOCc1cc(Cl)c(Cl)cc1Cl [II-F]	male mice	1.3
C#CCOC(c1ccc(Cl)cc1)C(C)[N+](=O)[O-] (centres unmarked) [IV-C]	male mice	2.5

stdin: # input molecule: C#CCn1ncc2ccc(Cl)cc21 [III-D] ; wanted: its Relative Sleeping Time, Noludar
stdout: 1.5

stdin: # Relative Sleeping Time, Noludar lookup, item CCOCCOCCOC(C)Oc1ccc2c(c1)OCO2 (centres unmarked) [Sesoxane, reference compound]
stdout: 3.1

stdin: So what's the measured Relative Sleeping Time, Noludar for this one? C#CCOCc1ccc([N+](=O)[O-])c(Cl)c1 [II-O]
stdout: 2.4

stdin: So what's the measured Relative Sleeping Time, Noludar for this one? C#CCON=Cc1ccc(N(C)C)cc1 [I-C]
stdout: 1.0

stdin: I have this molecule here, C#CCOCc1ccc(Cl)cc1[N+](=O)[O-] [II-J] , and I need its recorded Relative Sleeping Time, Noludar.
stdout: 2.2

stdin: Would you mind telling me what Relative Sleeping Time, Noludar value was observed for C#CCON=Cc1cccc2ccccc12 [I-I] ?
stdout: 2.1

stdin: Record request: Relative Sleeping Time, Noludar value, item C#CCOCc1cccc2ccccc12 [II-R, α-napthylmethyl 2-propynyl ether]
stdout: 1.7

stdin: Param item = C#CCON=Cc1ccc(Cl)cc1Cl [I-G] ; retrieve measured Relative Sleeping Time, Noludar.
stdout: 1.2

stdin: Name the reported Relative Sleeping Time, Noludar value associated with the molecule C#CCOCc1ccc(Cl)c(Cl)c1 [II-C]
stdout: 1.3

stdin: I am curious: what Relative Sleeping Time, Noludar value has been reported for C#CCON=C(C)c1ccc(Cl)cc1 [I-D] ?
stdout: 1.5

stdin: Query: Relative Sleeping Time, Noludar; subject: C#CCOCc1ccccc1[N+](=O)[O-] [II-P, 2-nitrobenzyl 2-propynyl ether]
stdout: 1.5

stdin: State the recorded Relative Sleeping Time, Noludar for this entry: C#CCOCc1ccc([N+](=O)[O-])cc1 [II-Q, 4-nitrobenzyl 2-propynyl ether]
stdout: 2.1

stdin: Find the recorded Relative Sleeping Time, Noludar belonging to C#CCON=Cc1cccc([N+](=O)[O-])c1 [I-B] and report it.
stdout: 2.4

stdin: Field request: Relative Sleeping Time, Noludar | item: C#CCOCc1ccc([N+](=O)[O-])cc1Cl [II-N]
stdout: 1.9

stdin: Entry C#CCn1ncc2cc([N+](=O)[O-])ccc21 [III-A] : reported Relative Sleeping Time, Noludar = ?
stdout: 1.0
